Test: Inhibition of glycogen phosphorylase b (unknown origin)
Design: species or system Homo sapiens
Item-by-item account of pKi
The value called pKi is obtained by taking minus log10 of the concentration in mol/L.

Example entries and their recorded answers appear below.
COC(=O)N[C@]1(C(N)=O)O[C@H](CO)[C@@H](O)[C@H](O)[C@H]1O: 4.80
NNC(=O)[C@@H]1O[C@H](CO)[C@@H](O)[C@H](O)[C@H]1O: 3.40
CC(=O)NC1O[C@H](CO)[C@@H](O)[C@H](O)[C@H]1O (single isomer, unassigned): 4.49

Ask: Need pKi of O=C(NCc1ccc(F)cc1F)[C@H]1O[C@H](CO)[C@@H](O)[C@H](O)[C@H]1O , thanks.
Result: 1.57

Ask: Need pKi of O=C(O)[C@H]1O[C@H](CO)[C@@H](O)[C@H](O)[C@H]1O , thanks.
Result: 1.82

Ask: Need pKi of NCC[C@@H]1O[C@H](CO)[C@@H](O)[C@H](O)[C@H]1O , thanks.
Result: 2.35

Ask: Need pKi of O=C(CSC1O[C@H](CO)[C@@H](O)[C@H](O)[C@H]1O)Nc1ccccc1 (single isomer, unassigned) , thanks.
Result: 2.44

Ask: Need pKi of CS(=O)(=O)OC[C@@H]1O[C@H](CO)[C@@H](O)[C@H](O)[C@H]1O , thanks.
Result: 2.32

Ask: Need pKi of NC(=O)[C@H]1O[C@H](CO)[C@@H](O)[C@H](O)[C@H]1O , thanks.
Result: 3.43

* * *

Item-by-item account of pKi
Test: Inhibition of glycogen phosphorylase b (unknown origin)
Design: species or system Homo sapiens
The value called pKi is obtained by taking minus log10 of the concentration in mol/L.

Example entries and their recorded answers appear below.
O=C(Nc1ccc(O)cc1)[C@@H]1O[C@H](CO)[C@@H](O)[C@H](O)[C@H]1O: 2.36
O=C(CSC1O[C@H](CO)[C@@H](O)[C@H](O)[C@H]1O)Nc1ccc(F)cc1F (single isomer, unassigned): 1.72
N#CC[C@@H]1O[C@H](CO)[C@@H](O)[C@H](O)[C@H]1O: 2.05

Could you now look at the following compound, please?
Ask: Need pKi of O=C(NCC(F)(F)F)[C@@H]1O[C@H](CO)[C@@H](O)[C@H](O)[C@H]1O , thanks.
Result: 2.09

* * *

Test: Inhibition of glycogen phosphorylase b (unknown origin)
Parameters: species or system Homo sapiens
Response field label takes TRUE when Ki is strictly below 3000 µM and FALSE in all other cases.

CCCC(=O)NC1O[C@H](CO)[C@@H](O)[C@H](O)[C@H]1O (single isomer, unassigned): TRUE
O=C(CCl)NC1O[C@H](CO)[C@@H](O)[C@H](O)[C@H]1O (single isomer, unassigned): TRUE

Ask: Quick check: does O=C1CNC(=O)C2(N1)O[C@H](CO)[C@@H](O)[C@H](O)[C@H]2O (some centres undefined) have Ki under 3000 µM?
Result: TRUE

* * *

Item-by-item account of Ki
Test: Inhibition of glycogen phosphorylase b (unknown origin)
Parameters: species or system Homo sapiens
Enter your answer as a number in mM; do not include the unit.

[N-]=[N+]=NC[C@H]1O[C@H](CO)[C@@H](O)[C@H](O)[C@H]1O: 22.4
O=C(Nc1ccccc1)[C@@H]1O[C@H](CO)[C@@H](O)[C@H](O)[C@H]1O: 5.4
NC(=O)CSC1O[C@H](CO)[C@@H](O)[C@H](O)[C@H]1O (single isomer, unassigned): 21.1
OC[C@H]1O[C@@H](Oc2cc3ccccc3[nH]2)[C@H](O)[C@@H](O)[C@@H]1O: 2.6
COC(=O)N[C@@H]1O[C@H](CO)[C@@H](O)[C@H](O)[C@H]1O: 0.085

Ask: Need Ki of NCC(=O)N[C@@H]1O[C@H](CO)[C@@H](O)[C@H](O)[C@H]1O , thanks.
Result: 0.37

Ask: Need Ki of NN1C(=O)NC2(O[C@H](CO)[C@@H](O)[C@H](O)[C@H]2O)C1=O (stereo not given in full) , thanks.
Result: 0.146

Ask: Need Ki of O=C(CBr)N[C@@H]1O[C@H](CO)[C@@H](O)[C@H](O)[C@H]1O , thanks.
Result: 0.044

Ask: Need Ki of OC[C@H]1O[C@@](O)(CO)[C@H](O)[C@@H](O)[C@@H]1O , thanks.
Result: 15.8

Ask: Need Ki of NC[C@@H]1O[C@H](CO)[C@@H](O)[C@H](O)[C@H]1O , thanks.
Result: 16.8

* * *

Test: Inhibition of glycogen phosphorylase b (unknown origin)
Design: species or system Homo sapiens
Item-by-item account of log10(Ki)
In plain terms, each number is the log10 of measured Ki in mM.

Example entries and their recorded answers appear below.
NC[C@H]1O[C@H](CO)[C@@H](O)[C@H](O)[C@H]1O: 1.54
NC(=O)[C@@H]1O[C@H](CO)[C@@H](O)[C@H](O)[C@H]1O: -0.36
NC(=O)NC1O[C@H](CO)[C@@H](O)[C@H](O)[C@H]1O (single isomer, unassigned): -0.85

Ask: Need log10(Ki) of C[C@H]1O[C@H](CO)[C@@H](O)[C@H](O)[C@H]1O , thanks.
Result: 1.73

Ask: Need log10(Ki) of O=C(NC1O[C@H](CO)[C@@H](O)[C@H](O)[C@H]1O)c1ccccc1 (single isomer, unassigned) , thanks.
Result: -1.09

Ask: Need log10(Ki) of CCC(=O)NC1O[C@H](CO)[C@@H](O)[C@H](O)[C@H]1O (single isomer, unassigned) , thanks.
Result: -1.41

Ask: Need log10(Ki) of O=C(NCCO)[C@H]1O[C@H](CO)[C@@H](O)[C@H](O)[C@H]1O , thanks.
Result: 1.23

Ask: Need log10(Ki) of CO[C@@H]1O[C@H](CO)[C@@H](O)[C@H](O)[C@H]1O , thanks.
Result: 1.39

Ask: Need log10(Ki) of O=C(NCCO)[C@@H]1O[C@H](CO)[C@@H](O)[C@H](O)[C@H]1O , thanks.
Result: 0.41

Ask: Need log10(Ki) of O=C(Nc1ccccc1)[C@H]1O[C@H](CO)[C@@H](O)[C@H](O)[C@H]1O , thanks.
Result: 1.10

Ask: Need log10(Ki) of OC[C@H]1S[C@H](O)[C@H](O)[C@@H](O)[C@@H]1O , thanks.
Result: 0.30

Ask: Need log10(Ki) of [N-]=[N+]=NC[C@]1(O)O[C@H](CO)[C@@H](O)[C@H](O)[C@H]1O , thanks.
Result: 0.87

Ask: Need log10(Ki) of O=C(NC1CC1)[C@@H]1O[C@H](CO)[C@@H](O)[C@H](O)[C@H]1O , thanks.
Result: 0.11

Ask: Need log10(Ki) of COC(=O)[C@@H]1O[C@H](CO)[C@@H](O)[C@H](O)[C@H]1O , thanks.
Result: 0.45

Ask: Need log10(Ki) of OC[C@H]1O[C@@H](S)[C@H](O)[C@@H](O)[C@@H]1O , thanks.
Result: 0.00

Ask: Need log10(Ki) of CNC(=O)[C@@H]1O[C@H](CO)[C@@H](O)[C@H](O)[C@H]1O , thanks.
Result: -0.80
